Just for reference, the supplement of paper PMC5998384 is where these values come from.

System: HeLa Kyoto;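 further: HeLa Kyoto cells synchronized by double thymidine or nocodazole block, proteins quantified by TMT10plex mass spectrometry, three independent biological replicates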
method: melting temperature (median over replicates), in situ; higher = more thermally stable
measurement conditions: cell cycle stage: mitosis
readout kind: melting temperature (°C)
Response body: numeric value in °C, unit text excluded.

Sample MAASSISSPWGKHVFKAILMVLVALILLHSALAQSRRDFAPPGQQKREAPVDVLTQIGRSVRGTLDAWIGPETMHLVSESSSQVLWAISSAISVAFFALSGIAAQLLNALGLAGDYLAQGLKLSPGQVQTFLLWGAGALVVYWLLSLLLGLVLALLGRILWGLKLVIFLAGFVALMRSVPDPSTRALLLLALLILYALLSRLTGSRASGAQLEAKVRGLERQVEELRWRQRRAAKGARSVEEE [TMEM109] — what was its melting temperature?
53.8

Sample MALKQEMAKSLLKTASLSGRTKLLHQTGLSLYSTSHGFYEEEVKKTLQQFPGGSIDLQKEDNGIGILTLNNPSRMNAFSGVMMLQLLEKVIELENWTEGKGLIVRGAKNTFSSGSDLNAVKSLGTPEDGMAVCMFMQNTLTRFMRLPLISVALVQGWALGGGAEFTTACDFRLMTPESKIRFVHKEMGIIPSWGGTTRLVEIIGSRQALKVLSGALKLDSKNALNIGMVEEVLQSSDETKSLEEAQEWLKQFIQGPPEVIRALKKSVCSGRELYLEEALQNERDLLGTVWGGPANLEAIAKKGKFNK [ECHDC1] — what was its melting temperature?
58.1

Sample MGNLFGRKKQSRVTEQDKAILQLKQQRDKLRQYQKRIAQQLERERALARQLLRDGRKERAKLLLKKKRYQEQLLDRTENQISSLEAMVQSIEFTQIEMKVMEGLQFGNECLNKMHQVMSIEEVERILDETQEAVEYQRQIDELLAGSFTQEDEDAILEELSAITQEQIELPEVPSEPLPEKIPENVPVKARPRQAELVAAS [CHMP6] — what was its melting temperature?
52.2

Sample MSSLIRRVISTAKAPGAIGPYSQAVLVDRTIYISGQIGMDPSSGQLVSGGVAEEAKQALKNMGEILKAAGCDFTNVVKTTVLLADINDFNTVNEIYKQYFKSNFPARAAYQVAALPKGSRIEIEAVAIQGPLTTASL [HRSP12] — what was its melting temperature?
55

Sample MAAPALGLVCGRCPELGLVLLLLLLSLLCGAAGSQEAGTGAGAGSLAGSCGCGTPQRPGAHGSSAAAHRYSREANAPGPVPGERQLAHSKMVPIPAGVFTMGTDDPQIKQDGEAPARRVTIDAFYMDAYEVSNTEFEKFVNSTGYLTEAEKFGDSFVFEGMLSEQVKTNIQQAVAAAPWWLPVKGANWRHPEGPDSTILHRPDHPVLHVSWNDAVAYCTWAGKRLPTEAEWEYSCRGGLHNRLFPWGNKLQPKGQHYANIWQGEFPVTNTGEDGFQGTAPVDAFPPNGYGLYNIVGNAWEWTSDWWTVHHSVEETLNPKGPPSGKDRVKKGGSYMCHRSYCYRYRCAARSQNTPDSSASNLGFRCAADRLPTMD [SUMF1] — what was its melting temperature?
55.1

Sample MAAAAAAAVAGVGRGGGGAEPRQERSRARGWAGVERSEGRRMEPGEELEEEGSPGGREDGFTAEHLAAEAMAADMDPWLVFDARTTPATELDAWLAKYPPSQVTRYGDPGSPNSEPVGWIAVYGQGYSPNSGDVQGLQAAWEALQTSGRPITPGTLRQLAITHHVLSGKWLMHLAPGFKLDHAWAGIARAVVEGQLQVAKVSPRAKEGGRQVICVYTDDFTDRLGVLEADSAIRAAGIKCLLTYKPDVYTYLGIYRANRWHLCPTLYESRFQLGGSARGSRVLDRANNVELT [C11ORF68] — what was its melting temperature?
51.9
